Where do these numbers come from? They come from patent US11931424B2.

# System: panel of breast cancer cell lines
# TEST_PROTOCOL: Compound A with targeted agents and chemotherapies, 72-hour in vitro proliferation assays
# Format: cell-based
# APPLIED_CONDITIONS: ZR-75-30 cells; combination of compound A with the named agent; 72-hour proliferation
QUANTITY_MEASURED: HSA volume
Give bare numbers.

// below: answered compounds
>>> val("CC(=O)O[C@@]12CO[C@@H]1C[C@H](O)[C@@]1(C)C(=O)[C@H](O)C3=C(C)[C@@H](OC(=O)[C@H](O)[C@@H](NC(=O)OC(C)(C)C)c4ccccc4)C[C@@](O)([C@@H](OC(=O)c4ccccc4)[C@H]21)C3(C)C")
3.70
>>> val("C[C@]12CC[C@@H]3c4ccc(O)cc4C[C@@H](CCCCCCCCC[S+]([O-])CCCC(F)(F)C(F)(F)F)[C@H]3[C@@H]1CC[C@@H]2O (some centres unmarked)")
1.18
>>> val("CO[C@H]1C[C@@H]2CC[C@@H](C)[C@@](O)(O2)C(=O)C(=O)N2CCCC[C@H]2C(=O)O[C@H]([C@H](C)C[C@@H]2CC[C@@H](OCCO)[C@H](OC)C2)CC(=O)[C@H](C)/C=C(\\C)[C@@H](O)[C@@H](OC)C(=O)[C@H](C)C[C@H](C)/C=C/C=C/C=C/1C")
4.76
>>> val("N.N.[Cl][Pt][Cl] [Cisplatin]")
8.48

We now examine a further compound.
Entry N.N.O=C([O-])C1(C(=O)[O-])CCC1.[Pt+2] needs its HSA volume filled in; supply it.
6.81
